Target protein (sequence): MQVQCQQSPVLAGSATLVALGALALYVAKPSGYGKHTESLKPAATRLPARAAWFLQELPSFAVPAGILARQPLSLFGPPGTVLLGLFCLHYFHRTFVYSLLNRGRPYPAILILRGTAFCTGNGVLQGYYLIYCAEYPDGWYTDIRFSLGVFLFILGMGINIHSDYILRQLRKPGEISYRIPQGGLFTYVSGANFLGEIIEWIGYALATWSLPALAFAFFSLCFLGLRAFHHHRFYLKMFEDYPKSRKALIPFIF
Reported Endpoint: log10(IC50) (log10 of the value in nM)

>>> test_value("CN1C(=O)CC[C@@H]2c3ccc(Cl)cc3CC[C@H]21 [BEXLOSTERIDE]")
3.24
>>> test_value("CC(C)CCCC(C)C1CCC2C3C(CC[C@]12C)[C@@]1(C)CCC(=O)NC1=C[C@@H]3C (stereo not given in full)")
2.93
>>> test_value("CCC[C@H]1C=C2NC(=O)CC[C@]2(C)C2CC[C@]3(C)C(C(C)CCCC(C)C)CCC3C21 (stereo not given in full)")
2.85
>>> test_value("CC(C)CCCC(C)C1CCC2C3CCC4NC(=O)CC[C@]4(C)C3CC[C@]12C (stereo not given in full)")
2.34
>>> test_value("C=CCN1C(=O)CC[C@]2(C)C3CC[C@]4(C)C(C(C)CCCC(C)C)CCC4C3[C@@H](C)CC12 (stereo not given in full)")
3.11
>>> test_value("CC[C@H]1C=C2NC(=O)CC[C@]2(C)C2CC[C@]3(C)C(C(C)CCCC(C)C)CCC3C21 (stereo not given in full)")
3.02
>>> test_value("CC[C@H]1CC2N(C)C(=O)CC[C@]2(C)C2CC[C@]3(C)C(C(C)CCCC(C)C)CCC3C21 (stereo not given in full)")
2.52
>>> test_value("CC(C)CCCC(C)C1CCC2C3C(CC[C@]12C)[C@@]1(C)CCC(=O)N(C)C1C[C@@H]3c1ccccc1 (stereo not given in full)")
2.63
>>> test_value("CC[C@H]1CC2NC(=O)CC[C@]2(C)C2CC[C@]3(C)C(C(C)CCCC(C)C)CCC3C21 (stereo not given in full)")
2.45
>>> test_value("CC(C)CCCC(C)C1CCC2C3C(CC[C@]12C)[C@@]1(C)CCC(=O)N(C)C1=C[C@@H]3C (stereo not given in full)")
2.17
>>> test_value("CCN1C(=O)CC[C@]2(C)C3CC[C@]4(C)C(C(C)CCCC(C)C)CCC4C3[C@@H](C)CC12 (stereo not given in full)")
3.14
>>> test_value("CC(C)CCCC(C)C1CCC2C3C(CC[C@]12C)[C@@]1(C)CCC(=O)NC1C[C@@H]3C (stereo not given in full)")
2.45
>>> test_value("CC(C)(C)NC(=O)[C@H]1CC[C@H]2[C@@H]3CC=C4C=C(C(=O)O)CC[C@]4(C)[C@H]3CC[C@]12C [EPRISTERIDE]")
-0.22
>>> test_value("CC(C)CCCC(C)C1CCC2C3C(CC[C@]12C)[C@@]1(C)CCC(=O)NC1C[C@@H]3c1ccccc1 (stereo not given in full)")
2.65
